Assignment: determine reported LE for the given compounds.
Target: STAT5b-SH2 domain (Homo sapiens, UniProt P51692)
Sequence (P51692 136-703): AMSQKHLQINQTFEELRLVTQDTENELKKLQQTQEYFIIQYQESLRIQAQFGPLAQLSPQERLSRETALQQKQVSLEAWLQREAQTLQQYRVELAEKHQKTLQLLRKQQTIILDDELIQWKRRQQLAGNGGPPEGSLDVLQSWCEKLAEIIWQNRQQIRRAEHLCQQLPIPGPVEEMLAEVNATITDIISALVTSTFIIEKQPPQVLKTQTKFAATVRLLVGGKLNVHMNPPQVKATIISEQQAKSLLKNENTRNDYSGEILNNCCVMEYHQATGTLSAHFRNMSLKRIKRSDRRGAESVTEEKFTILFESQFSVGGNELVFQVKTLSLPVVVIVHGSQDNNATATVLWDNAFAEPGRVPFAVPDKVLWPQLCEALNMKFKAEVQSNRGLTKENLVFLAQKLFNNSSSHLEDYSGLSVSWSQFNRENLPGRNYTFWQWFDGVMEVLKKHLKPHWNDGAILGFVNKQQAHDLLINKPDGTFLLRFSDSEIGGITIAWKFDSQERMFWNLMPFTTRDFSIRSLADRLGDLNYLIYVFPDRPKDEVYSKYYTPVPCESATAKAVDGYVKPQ
Assay: Competitive fluorescence polarization (FP) assay, STAT5b-SH2 domain
// no unit, no text: just the number

Ask: Return LE (reported value) for this compound: O=C(O)c1nonc1NCn1nnnc1Cc1ccccc1
Reply: 1.31

Ask: Return LE (reported value) for this compound: O=C(O)c1nonc1NCn1nnnc1-c1ccc(F)cc1
Reply: 1.42

Ask: Return LE (reported value) for this compound: O=C(O)c1nonc1NCn1nnnc1-c1cccc(F)c1
Reply: 1.61

Ask: Return LE (reported value) for this compound: O=C(O)c1nonc1NCn1nnnc1-c1cccc(C(F)(F)F)c1
Reply: 1.38

Ask: Return LE (reported value) for this compound: O=C(O)c1nonc1NCn1nnnc1-c1cccc(OCc2ccccc2)c1
Reply: 1.16
